Quantity kind: melting point

Q: melting point for CCOc1cc(F)ccc1-c1noc2c(Cl)c(OC)ccc12 ?
Ans: 150 to 152 °C

Q: melting point for C=CCCn1ncc2c(N)c(C(=O)OCC=C)c(C)nc21 ?
Ans: 64 to 64.5 °C

Q: melting point for CCOc1ccccc1-c1ncc(C(N)=O)c(=O)[nH]1 ?
Ans: 236 to 238 °C

Q: melting point for Cc1c(-c2ccccc2)[nH]c(N)c1C(N)=O ?
Ans: 195 to 197 °C

Q: melting point for CC(O)(CCN)C1(F)C=CC(c2ccccc2)=CC1 (stereo unspecified) ?
Ans: 144 to 146 °C

Q: melting point for Cc1nc(C)c2c(n1)N(Cc1ccc(-c3ccccc3-c3nnn[nH]3)cc1)C(=O)C2 ?
Ans: 228 to 229 °C

Q: melting point for COC(=O)CS(=O)(=O)Nc1ccc(F)cc1C(F)(F)F ?
Ans: 84 to 86 °C

Q: melting point for CC(C)N1C(=O)C2Cc3nc[nH]c3CN2C1=O (stereo unspecified) ?
Ans: 149 to 157 °C

Q: melting point for CC(C)NCC(O)COc1ccc2c(c1)C(=O)OC2 (stereo unspecified) ?
Ans: 95 to 97 °C

Q: melting point for Cc1c(NC(=O)c2ccc(NC(=O)c3ccccc3)cc2)ccc2cc(CN3CCCC3)cnc12 ?
Ans: 242 °C

Q: melting point for COc1ccc(C2(C=O)C=CC=CC2)cc1OCCCN1CCC(c2noc3cc(F)ccc23)CC1 (stereo unspecified) ?
Ans: 140 to 141 °C

Q: melting point for CC(=O)O[C@@]12C[C@@H](OC1=O)C(=O)[C@H](O[Si](C)(C)C(C)(C)C)C2 ?
Ans: 134 to 137 °C

Q: melting point for CCN1C(=O)C2CCc3c(Br)ccc(OC)c3C2C1=O (stereo unspecified) ?
Ans: 170 to 174 °C

Q: melting point for O=C(ON1C(=O)CCC1=O)c1ccc(-c2ccc(S(=O)(=O)N3CCCC(CO)C3)cc2)[nH]c1=O (stereo unspecified) ?
Ans: 201 to 204 °C

Q: melting point for COC(=O)C1=C(C=O)NC(C)=C(C(=O)OCC(C)(C)C)C1c1ccccc1C#N (stereo unspecified) ?
Ans: 141 to 143 °C

Q: melting point for COC(=O)c1cnc(N2CCN(Cc3ccccc3)CC2)nc1OC ?
Ans: 135 to 138 °C
